pEC50 values for the compounds below.
Test system: human venous whole blood (IFN-γ)
Assay: Human whole blood IFN-γ assay
Assay type: cell-based
Details: human whole blood, anti-CD3 plus anti-CD28 stimulation, 24 hours; read-out: IFN-γ Whole Blood EC50
pEC50: −log10 of the molar value.

compound	pEC50
CCC(c1ccc(OCC2CC2)cc1)N1C[C@H](C)N(c2nc(=O)n(C)c3ccc(C#N)nc23)C[C@H]1CC (some centres unmarked) [Example 308]	7.47
CC(c1ccc(CN2CCOC(C)(C)C2)cc1)N1C[C@H](C)N(c2nc(=O)n(C)c3ccc(C#N)nc23)C[C@H]1C (single isomer, unassigned) [Example 386]	5.60
CC(c1ccc(CN2C[C@@H]3C[C@H]2CO3)cc1)N1C[C@H](C)N(c2nc(=O)n(C)c3ccc(C#N)nc23)C[C@H]1C (some centres unmarked) [Example 388]	4.70
C[C@@H]1CN(c2nc(=O)n(C)c3ccc(C#N)nc23)[C@@H](C)CN1C(c1ccc(F)cc1)c1ccc(C#N)cc1 (some centres unmarked)	5.67
CC[C@H]1CN(C(c2ccc(F)cc2)c2noc(C3CC3)n2)[C@H](CC)CN1c1nc(=O)n(C)c2ccc(C#N)nc12 (single isomer, unassigned)	6.82
CC(c1ccc(CN2CCOC(C)(C)C2)cc1)N1C[C@H](C)N(c2nc(=O)n(C)c3ccc(C#N)nc23)C[C@H]1C (single isomer, unassigned) [Example 385]	6.89
CCC(c1ccc(OCC2CC2)cc1)N1C[C@H](C)N(c2nc(=O)n(C)c3ccc(C#N)nc23)C[C@H]1CC (some centres unmarked) [Example 309]	5.83
CCC(c1ccc(C(F)(F)F)cc1)N1C[C@H](CC)N(c2nc(=O)n(C)c3ccc(OC)nc23)C[C@H]1CC (some centres unmarked) [Example 436]	4.70
CC(c1ccc(OC(C)(C)C#N)cc1)N1C[C@H](C)N(c2nc(=O)n(C)c3ccc(C#N)nc23)C[C@H]1C (some centres unmarked) [Example 376]	7.24
CC[C@H]1CN(C(C)c2nc(C3CC3)no2)[C@H](CC)CN1c1nc(=O)n(C)c2ccc(C#N)nc12 (some centres unmarked) [Example 362]	5.51
CCC(c1ccc(C(F)(F)F)cc1)N1C[C@H](CC)N(c2nc(=O)n(C)c3ccc(OC)nc23)C[C@H]1CC (some centres unmarked) [Example 435]	5.38

====

Biological target: human DGKζ (Homo sapiens (Human))
Assay: DGKζ LIPGLO assay (extruded liposome substrate, ADP-Glo luminescence)
Type: biochemical
Settings: liposome assay; read-out: DGK zeta LIPGLO IC50
assay-metric: IC50 (nM)

> print(dat)
                                   compound  assay.metric  quantitative.result
1  CC[C@@H]1CN(c2nc(=O)n(C)c3ccc(C#N)nc23)[C@@H](CC)CN1CC1CCC(F)(F)CC1          IC50                  260
2  CC[C@@H]1CN(c2nc(=O)n(C)c3ccc(C#N)nc23)[C@@H](C)CN1C(C)c1ccc(C2CC2)cc1F (single isomer, unassigned) [Example 92]          IC50                  120
3  CC(c1ccc(C2CC2)cc1)N1C[C@H](C)N(c2nc(=O)n(C)c3ccc(C#N)nc23)C[C@H]1C (single isomer, unassigned) [Example 3]          IC50                  110

====

Molecular target: UniProt:P23743
Sequence (P23743 whole entry, looked up): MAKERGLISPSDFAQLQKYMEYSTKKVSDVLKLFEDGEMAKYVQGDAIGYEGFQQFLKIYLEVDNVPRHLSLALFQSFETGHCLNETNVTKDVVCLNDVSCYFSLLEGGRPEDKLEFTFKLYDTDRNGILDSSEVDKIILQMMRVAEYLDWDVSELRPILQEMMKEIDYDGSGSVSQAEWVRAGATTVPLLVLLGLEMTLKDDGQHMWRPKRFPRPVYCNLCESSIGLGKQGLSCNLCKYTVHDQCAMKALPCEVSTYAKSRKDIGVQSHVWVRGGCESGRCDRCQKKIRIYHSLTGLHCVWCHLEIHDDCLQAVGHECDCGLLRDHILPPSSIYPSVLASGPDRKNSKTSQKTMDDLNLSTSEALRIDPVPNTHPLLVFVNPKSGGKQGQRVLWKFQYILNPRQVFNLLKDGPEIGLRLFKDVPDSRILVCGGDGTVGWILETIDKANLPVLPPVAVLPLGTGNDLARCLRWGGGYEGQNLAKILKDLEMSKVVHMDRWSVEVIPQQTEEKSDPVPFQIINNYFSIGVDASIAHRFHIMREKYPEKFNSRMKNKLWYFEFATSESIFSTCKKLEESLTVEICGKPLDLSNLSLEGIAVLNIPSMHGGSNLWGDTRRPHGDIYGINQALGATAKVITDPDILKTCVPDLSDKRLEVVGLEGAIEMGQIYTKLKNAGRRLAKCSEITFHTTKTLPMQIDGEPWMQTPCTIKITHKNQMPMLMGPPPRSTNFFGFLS
Test: DGKα ADPGLO assay (detergent/lipid micelle substrate)
Format: biochemical
Conditions: ADPGLO assay; read-out: DGK alpha ADPGLO IC50
Each entry below carries its recorded IC50.
assay-metric: IC50 (nM)

> print(dat)
                                   compound  units.symbol  quantitative.result
1  CCC(c1c(F)cc(OCC2CC2)cc1F)N1C[C@H](C)N(c2nc(=O)n(C)c3ccc(C#N)nc23)C[C@H]1CC (stereo partly shown) [Example 327]            nM                  320
2  CC[C@@H]1CN(c2nc(=O)n(C)c3ccc(C#N)nc23)[C@@H](C)CN1C(c1ccc(F)cc1)c1cccc(C(F)F)n1 (stereo partly shown) [Example 316]            nM                   87
3  CCC(c1ccc(C(C)(C)C#N)cc1)N1C[C@H](C)N(c2nc(=O)n(C)c3ccc(C#N)nc23)C[C@H]1CC (stereo partly shown) [Example 318]            nM                  620
4  CCOC[C@@H]1CN(c2nc(=O)n(C)c3ccc(C#N)nc23)[C@@H](C)CN1C(CC)c1ccc(C(F)(F)F)cc1 (stereo partly shown) [Example 400]            nM                  750

====

Target: human DGKζ (Homo sapiens (Human), UniProt Q13574)
Sequence (Q13574 other isoform, or with tags, fused parts or gaps): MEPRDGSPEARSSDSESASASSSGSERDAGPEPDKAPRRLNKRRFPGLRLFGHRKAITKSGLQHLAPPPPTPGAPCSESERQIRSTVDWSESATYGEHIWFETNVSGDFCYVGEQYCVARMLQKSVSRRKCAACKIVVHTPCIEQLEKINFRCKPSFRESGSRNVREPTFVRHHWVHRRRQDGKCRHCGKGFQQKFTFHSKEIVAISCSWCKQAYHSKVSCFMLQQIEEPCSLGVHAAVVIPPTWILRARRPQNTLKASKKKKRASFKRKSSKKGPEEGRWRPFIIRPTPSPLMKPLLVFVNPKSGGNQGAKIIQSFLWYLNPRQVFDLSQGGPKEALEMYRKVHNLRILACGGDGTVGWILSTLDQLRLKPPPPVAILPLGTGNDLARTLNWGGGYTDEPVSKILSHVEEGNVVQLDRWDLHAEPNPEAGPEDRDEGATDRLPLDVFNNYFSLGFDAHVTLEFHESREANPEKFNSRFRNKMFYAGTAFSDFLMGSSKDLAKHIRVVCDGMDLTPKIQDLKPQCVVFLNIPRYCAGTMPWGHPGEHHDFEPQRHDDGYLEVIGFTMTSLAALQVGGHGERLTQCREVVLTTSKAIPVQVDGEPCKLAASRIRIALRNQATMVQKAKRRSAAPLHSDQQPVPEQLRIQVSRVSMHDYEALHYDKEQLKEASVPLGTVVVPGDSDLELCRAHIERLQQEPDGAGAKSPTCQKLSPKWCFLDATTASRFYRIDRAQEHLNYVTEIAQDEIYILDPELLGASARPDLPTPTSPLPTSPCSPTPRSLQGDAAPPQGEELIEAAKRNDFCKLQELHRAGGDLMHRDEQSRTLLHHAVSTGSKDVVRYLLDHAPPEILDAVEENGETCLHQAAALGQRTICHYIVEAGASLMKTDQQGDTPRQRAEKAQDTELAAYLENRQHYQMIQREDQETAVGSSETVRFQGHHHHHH
Assay: DGKζ LIPGLO assay (extruded liposome substrate, ADP-Glo luminescence)
Format: biochemical
Details: liposome assay; read-out: DGK zeta LIPGLO IC50
pIC50: −log10 of the molar value.
assay-metric: pIC50

compound	tgt	assay-metric	quantitative-result
C[C@@H]1CN(c2nc(=O)n(C)c3ccc(C#N)nc23)[C@@H](C)CN1C(c1ccc(F)cc1)c1nc(C2CC2)cs1 (single isomer, unassigned) [Example 159]	human DGKζ (Homo sapiens (Human), UniProt Q13574)	pIC50	7.42
CC[C@@H]1CN(c2nc(=O)n(C)c3ccc(C#N)nc23)[C@@H](C)CN1C(c1ccc(OC(F)(F)F)cc1)c1cc(C2CC2)on1 (single isomer, unassigned) [Example 100]	human DGKζ (Homo sapiens (Human), UniProt Q13574)	pIC50	6.96
CC(c1ccc(OC(F)(F)F)cc1)N1C[C@H](C)N(c2nc(=O)n(C)c3ccc(C#N)nc23)C[C@H]1C (single isomer, unassigned) [Example 131]	human DGKζ (Homo sapiens (Human), UniProt Q13574)	pIC50	6.89
CCC(c1ccc2c(c1)OC(F)(F)O2)N1C[C@H](C)N(c2nc(=O)n(C)c3ccc(C#N)nc23)C[C@H]1CC (single isomer, unassigned) [Example 79]	human DGKζ (Homo sapiens (Human), UniProt Q13574)	pIC50	7.64
CC[C@@H]1CN(c2nc(=O)n(C)c3ccc(C#N)nc23)[C@@H](C)CN1C(c1ccc(F)cc1)c1ccccn1 (single isomer, unassigned) [Example 88]	human DGKζ (Homo sapiens (Human), UniProt Q13574)	pIC50	7.12

====

Biological target: human DGKζ (Homo sapiens (Human), UniProt Q13574)
Assay: DGKζ LIPGLO assay (extruded liposome substrate, ADP-Glo luminescence)
Assay type: biochemical
Conditions: liposome assay; read-out: DGK zeta LIPGLO IC50
assay-metric: log10(IC50) (log10 of the value in nM)

compound	log10(IC50)
CC[C@@H]1CN(c2nc(=O)n(C)c3ccc(C#N)nc23)[C@@H](C)CN1C(c1ccc(F)cc1)c1cc(C2CC2)on1 (single isomer, unassigned) [Example 101]	1.82
CC[C@H]1CN(C(C)c2ccc(CN3CCOC(C)(C)C3)cc2)[C@H](CC)CN1c1nc(=O)n(C)c2ccc(C#N)nc12 (stereo partly shown) [Example 275]	2.18
CC[C@@H]1CN(c2nc(=O)n(C)c3ccc(C#N)nc23)[C@@H](C)CN1C(c1ccc(OC(F)(F)F)cc1)c1ccccn1 (single isomer, unassigned) [Example 93]	2.72
CC[C@H]1CN(C(C)c2cccc(OC(F)(F)F)n2)[C@H](CC)CN1c1nc(=O)n(C)c2ccc(C#N)nc12 (stereo partly shown) [Example 246]	3.77
CC[C@H]1CN(C(C)c2cccc(OC(F)F)n2)[C@H](CC)CN1c1nc(=O)n(C)c2ccc(C#N)nc12 (stereo partly shown) [Example 241]	2.96
CC[C@H]1CN(C(C)c2cnc(C(F)(F)F)nc2)[C@H](CC)CN1c1nc(=O)n(C)c2ccc(C#N)nc12 (stereo partly shown) [Example 226]	3.42
[2H]C([2H])([2H])Oc1ccc(C(C)N2C[C@H](CC)N(c3nc(=O)n(C)c4ccc(C#N)nc34)C[C@H]2CC)cc1 (single isomer, unassigned) [Example 190]	1.23
C[C@@H]1CN(c2nc(=O)n(C)c3ccc(C#N)nc23)[C@@H](C)CN1C(c1ccc(F)cc1)c1csc(C(F)(F)F)n1 (single isomer, unassigned) [Example 170]	2.52
CC[C@@H]1CN(c2nc(=O)n(C)c3ccc(C#N)nc23)[C@@H](C)CN1C(C)c1ccc(C#N)cc1 (single isomer, unassigned) [Example 60]	1.45
C[C@@H]1CN(c2nc(=O)n(C)c3ccc(C#N)nc23)[C@@H](C)CN1C(c1ccc(F)cc1)c1nc(C(C)(C)C)no1 (single isomer, unassigned) [Example 108]	1.70
CC[C@H]1CN(C(C)c2ccc(C(C)(C)N3CCOCC3)cc2)[C@H](CC)CN1c1nc(=O)n(C)c2ccc(C#N)nc12 (stereo partly shown)	2.92
CC[C@@H]1CN(c2nc(=O)n(C)c3ccc(C#N)nc23)[C@@H](C)CN1C(c1ccc(F)cc1)c1ccc(C2CC2)cn1 (single isomer, unassigned) [Example 76]	1.36
CC[C@H]1CN(C(C)c2ccc(CN3C[C@@H](C)O[C@@H](C)C3)cc2)[C@H](CC)CN1c1nc(=O)n(C)c2ccc(C#N)nc12 (stereo partly shown) [Example 291]	2.63
CC[C@H]1CN(C(C)c2ccc(CN3CCN(C)C(=O)C3)cc2)[C@H](CC)CN1c1nc(=O)n(C)c2ccc(C#N)nc12 (stereo partly shown) [Example 288]	4.50
CC[C@H]1CN(C(c2ccc(OC(C)C)cc2)C(C)C)[C@H](CC)CN1c1nc(=O)n(C)c2ccc(C#N)nc12 (stereo partly shown)	1.23
CC[C@@H]1CN(c2nc(=O)n(C)c3ccc(C#N)nc23)[C@@H](C)CN1C(C)c1ccc(C(F)(F)F)cc1F (single isomer, unassigned) [Example 58]	1.73
CC[C@H]1CN(C(C)c2ccc(C3CC3)cc2)[C@H](CC)CN1c1nc(=O)n(C)c2ccc(C#N)nc12 (single isomer, unassigned) [Example 28]	3.42
CC[C@H]1CN(C(C)c2ccc(C3(C#N)CC3)cc2)[C@H](CC)CN1c1nc(=O)n(C)c2ccc(C#N)nc12 (stereo partly shown) [Example 264]	3.07
C[C@@H]1CN(c2nc(=O)n(C)c3ccc(C#N)nc23)[C@@H](C)CN1Cc1cc(F)c(F)c(F)c1	2.98
C[C@H]1CN(C(c2ccc(F)cc2)c2ccc(C(F)(F)F)cn2)[C@H](CO)CN1c1nc(=O)n(C)c2ccc(C#N)nc12 (single isomer, unassigned) [Example 181]	4.09
CCC(c1ccc(OC(C)C)cc1)N1C[C@H](CC)N(c2nc(=O)n(C)c3ccc(C#N)nc23)C[C@H]1CC (stereo partly shown) [Example 234]	1.77
CC[C@H]1CN(C(C)c2cccc(OC(F)(F)F)n2)[C@H](CC)CN1c1nc(=O)n(C)c2ccc(C#N)nc12 (stereo partly shown) [Example 245]	2.46
